assay: Apparent volume of distribution at steady state in iv dosed patient with normal renal function; conditions: human, in vivo
readoutType: Vd (L/kg)
Give the quantity in L/kg, number only.

Exercise: Reported Vd for O=P1(N(CCCl)CCCl)NCCCO1 (stereo unspecified) [CYCLOPHOSPHAMIDE ANHYDROUS] : what is it?
Solution: 0.73

###

assay: Disposition rate constant in iv dosed patient (7 patients) with renal insufficiency; conditions: human, in vivo
readoutType: k el (s⁻¹)
Give the quantity in s⁻¹, number only.

Exercise: Reported k el for O=P1(N(CCCl)CCCl)NCCCO1 (stereo unspecified) [CYCLOPHOSPHAMIDE ANHYDROUS] : what is it?
Solution: 1.94e-05

###

assay: Disposition rate constant in patient (7 patients) with renal insufficiency at 50 mg/kg, po; conditions: human, in vivo
readoutType: k el (s⁻¹)
Give the quantity in s⁻¹, number only.

Exercise: Reported k el for O=P1(N(CCCl)CCCl)NCCCO1 (stereo unspecified) [CYCLOPHOSPHAMIDE ANHYDROUS] : what is it?
Solution: 1.42e-05

###

experiment: Apparent first order elimination rate constant from the central compartment in iv dosed patient with normal renal function; details: human, in vivo
readoutType: k el
Write the figure, then the unit, nothing else.

Exercise: Reported k el for O=P1(N(CCCl)CCCl)NCCCO1 (stereo unspecified) [CYCLOPHOSPHAMIDE ANHYDROUS] : what is it?
Solution: 4.86e-05 s⁻¹

###

assay: Apparent volume of distribution in beta-phase in iv dosed patient (7 patients) with renal insufficiency; conditions: human, in vivo
readoutType: Vd
Write the figure, then the unit, nothing else.

Exercise: Reported Vd for O=P1(N(CCCl)CCCl)NCCCO1 (stereo unspecified) [CYCLOPHOSPHAMIDE ANHYDROUS] : what is it?
Solution: 0.72 L/kg

###

assay: Apparent volume of distribution in beta-phase iv dosed patient with normal renal function; conditions: human, in vivo
readoutType: Vd
Write the figure, then the unit, nothing else.

Exercise: Reported Vd for O=P1(N(CCCl)CCCl)NCCCO1 (stereo unspecified) [CYCLOPHOSPHAMIDE ANHYDROUS] : what is it?
Solution: 0.68 L/kg

###

experiment: clinical; details: human, in vivo, po, 350 mg/kg
Description: Terminal half life in patient (7 patients) with renal insufficiency at 350 mg/kg, po
readoutType: half-life (h)
Give the quantity in h, number only.

Exercise: Reported half-life for O=P1(N(CCCl)CCCl)NCCCO1 (stereo unspecified) [CYCLOPHOSPHAMIDE ANHYDROUS] : what is it?
Solution: 5.21

###

assay: Total body clearance in iv dosed patient with normal renal function; conditions: human, in vivo
readoutType: clearance (mL/min/kg)
Give the quantity in mL/min/kg, number only.

Exercise: Reported clearance for O=P1(N(CCCl)CCCl)NCCCO1 (stereo unspecified) [CYCLOPHOSPHAMIDE ANHYDROUS] : what is it?
Solution: 0.977

###

assay: Apparent first order elimination rate constant from the central compartment in iv dosed patient (7 patients) with renal insufficiency; settings: human, in vivo
readoutType: k el (s⁻¹)
Give the quantity in s⁻¹, number only.

Exercise: Reported k el for O=P1(N(CCCl)CCCl)NCCCO1 (stereo unspecified) [CYCLOPHOSPHAMIDE ANHYDROUS] : what is it?
Solution: 3.36e-05

###

assay: Apparent volume of distribution at steady state in iv dosed patient (7 patients) with renal insufficiency; conditions: human, in vivo
readoutType: Vd (L/kg)
Give the quantity in L/kg, number only.

Exercise: Reported Vd for O=P1(N(CCCl)CCCl)NCCCO1 (stereo unspecified) [CYCLOPHOSPHAMIDE ANHYDROUS] : what is it?
Solution: 0.58

From: ChEMBL document CHEMBL3785078
